test system: mice bearing PSMA-expressing LNCAP cancer xenografts; assay: Biodistribution of 68Ga-labeled compounds; assay type: in vivo; conditions: 3 h post-injection
READOUT TYPE: Tail uptake (% ID/g)
Enter your answer as a number in % ID/g; do not include the unit.

Take a look at these entries with their results.
| MOLECULE | MEASUREMENT UNITS | Tail uptake |
| --- | --- | --- |
| O=C([O-])CN1CCN(CC(=O)[O-])CCN(CC(=O)NCCCC[C@H](NC(=O)CNC(=O)CCCc2ccc([N+](=O)[O-])cc2)C(=O)NC[C@H]2CC[C@H](C(=O)N[C@@H](Cc3ccc4ccccc4c3)C(=O)NCCCC[C@H](NC(=O)N[C@@H](CCC(=O)O)C(=O)O)C(=O)O)CC2)CCN(CC(=O)[O-])CC1.[68Ga+3] [^68Ga-HTK03089] | % ID/g | 1.01 |
| O=C([O-])CN1CCN(CC(=O)[O-])CCN(CC(=O)NCCCC[C@H](NC(=O)CNC(=O)CCCc2ccccc2)C(=O)NC[C@H]2CC[C@H](C(=O)N[C@@H](Cc3ccc4ccccc4c3)C(=O)NCCCC[C@H](NC(=O)N[C@@H](CCC(=O)O)C(=O)O)C(=O)O)CC2)CCN(CC(=O)[O-])CC1.[68Ga+3] [^68Ga-HTK03056] | % ID/g | 0.54 |

Shifting focus to the molecule that follows.
Q. Given O=C([O-])CN1CCN(CC(=O)[O-])CCN(CC(=O)NCCCC[C@H](NC(=O)CNC(=O)CCCc2ccc(F)cc2)C(=O)NC[C@H]2CC[C@H](C(=O)N[C@@H](Cc3ccc4ccccc4c3)C(=O)NCCCC[C@H](NC(=O)N[C@@H](CCC(=O)O)C(=O)O)C(=O)O)CC2)CCN(CC(=O)[O-])CC1.[68Ga+3] [^68Ga-HTK03085] , state its recorded Tail uptake.
A. 0.60

* * *

The entries below come with measured Testes uptake values attached.
tested on: mice bearing PSMA-expressing LNCAP cancer xenografts; assay: Biodistribution of 68Ga-labeled compounds; format: in vivo; conditions: 3 h post-injection
Return type: number; implicit unit % ID/g.

| COMPOUND | STUDY TARGET | Testes uptake (% ID/g) |
| --- | --- | --- |
| O=C([O-])CN1CCN(CC(=O)[O-])CCN(CC(=O)NCCCC[C@H](NC(=O)CNC(=O)CCCc2ccc([N+](=O)[O-])cc2)C(=O)NC[C@H]2CC[C@H](C(=O)N[C@@H](Cc3ccc4ccccc4c3)C(=O)NCCCC[C@H](NC(=O)N[C@@H](CCC(=O)O)C(=O)O)C(=O)O)CC2)CCN(CC(=O)[O-])CC1.[68Ga+3] [^68Ga-HTK03089] | mice bearing PSMA-expressing LNCAP cancer xenografts | 0.73 |
| O=C([O-])CN1CCN(CC(=O)[O-])CCN(CC(=O)NCCCC[C@H](NC(=O)CNC(=O)CCCc2ccc(F)cc2)C(=O)NC[C@H]2CC[C@H](C(=O)N[C@@H](Cc3ccc4ccccc4c3)C(=O)NCCCC[C@H](NC(=O)N[C@@H](CCC(=O)O)C(=O)O)C(=O)O)CC2)CCN(CC(=O)[O-])CC1.[68Ga+3] [^68Ga-HTK03085] | mice bearing PSMA-expressing LNCAP cancer xenografts | 0.60 |

Q. I'd like to know its Testes uptake. The compound in question is O=C([O-])CN1CCN(CC(=O)[O-])CCN(CC(=O)NCCCC[C@H](NC(=O)CNC(=O)CCCc2ccc(I)cc2)C(=O)NC[C@H]2CC[C@H](C(=O)N[C@@H](Cc3ccc4ccccc4c3)C(=O)NCCCC[C@H](NC(=O)N[C@@H](CCC(=O)O)C(=O)O)C(=O)O)CC2)CCN(CC(=O)[O-])CC1.[68Ga+3] [^68Ga-HTK03024]
A. 3.07

* * *

// values below are reported Testes uptake
system: mice bearing PSMA-expressing LNCAP cancer xenografts; test: Biodistribution of 68Ga-labeled compounds; assay type: in vivo; settings: 1 h post-injection
Lab book: enter the figure in % ID/g, no units written.

Illustrative cases are given below, each with its answer.
| MOLECULE | STUDY TARGET | ASSAY VALUE |
| --- | --- | --- |
| O=C([O-])CN1CCN(CC(=O)[O-])CCN(CC(=O)NCCCC[C@H](NC(=O)CNC(=O)CCCc2ccc(F)cc2)C(=O)NC[C@H]2CC[C@H](C(=O)N[C@@H](Cc3ccc4ccccc4c3)C(=O)NCCCC[C@H](NC(=O)N[C@@H](CCC(=O)O)C(=O)O)C(=O)O)CC2)CCN(CC(=O)[O-])CC1.[68Ga+3] [^68Ga-HTK03085] | mice bearing PSMA-expressing LNCAP cancer xenografts | 1.03 |
| O=C([O-])CN1CCN(CC(=O)[O-])CCN(CC(=O)NCCCC[C@H](NC(=O)CNC(=O)CCCc2ccc([N+](=O)[O-])cc2)C(=O)NC[C@H]2CC[C@H](C(=O)N[C@@H](Cc3ccc4ccccc4c3)C(=O)NCCCC[C@H](NC(=O)N[C@@H](CCC(=O)O)C(=O)O)C(=O)O)CC2)CCN(CC(=O)[O-])CC1.[68Ga+3] [^68Ga-HTK03089] | mice bearing PSMA-expressing LNCAP cancer xenografts | 1.35 |
| O=C([O-])CN1CCN(CC(=O)[O-])CCN(CC(=O)NCCCC[C@H](NC(=O)CNC(=O)CCCc2ccccc2)C(=O)NC[C@H]2CC[C@H](C(=O)N[C@@H](Cc3ccc4ccccc4c3)C(=O)NCCCC[C@H](NC(=O)N[C@@H](CCC(=O)O)C(=O)O)C(=O)O)CC2)CCN(CC(=O)[O-])CC1.[68Ga+3] [^68Ga-HTK03056] | mice bearing PSMA-expressing LNCAP cancer xenografts | 0.98 |
| O=C([O-])CN1CCN(CC(=O)[O-])CCN(CC(=O)NCCCC[C@H](NC(=O)CNC(=O)CCCc2ccc(Br)cc2)C(=O)NC[C@H]2CC[C@H](C(=O)N[C@@H](Cc3ccc4ccccc4c3)C(=O)NCCCC[C@H](NC(=O)N[C@@H](CCC(=O)O)C(=O)O)C(=O)O)CC2)CCN(CC(=O)[O-])CC1.[68Ga+3] [^68Ga-HTK03058] | mice bearing PSMA-expressing LNCAP cancer xenografts | 2.74 |
| COc1ccc(CCCC(=O)NCC(=O)N[C@@H](CCCCNC(=O)CN2CCN(CC(=O)[O-])CCN(CC(=O)[O-])CCN(CC(=O)[O-])CC2)C(=O)NC[C@H]2CC[C@H](C(=O)N[C@@H](Cc3ccc4ccccc4c3)C(=O)NCCCC[C@H](NC(=O)N[C@@H](CCC(=O)O)C(=O)O)C(=O)O)CC2)cc1.[68Ga+3] [^68Ga-HTK03086] | mice bearing PSMA-expressing LNCAP cancer xenografts | 1.54 |

Could you now consider this next molecule?
Q. Form field: reported Testes uptake of O=C([O-])CN1CCN(CC(=O)[O-])CCN(CC(=O)NCC2CCC(C(=O)NC(Cc3c4ccccc4cc4ccccc34)C(=O)NCCCCC(NC(=O)NC(CCC(=O)O)C(=O)O)C(=O)O)CC2)CCN(CC(=O)[O-])CC1.[68Ga+3] (stereo not drawn) [^68Ga-HTK03041]
A. 1.34

* * *

molecules and their reported Brain uptake
Test system: mice bearing PSMA-expressing LNCAP cancer xenografts
Assay: Biodistribution of 68Ga-labeled compounds
Format: in vivo
Settings: 3 h post-injection
Description: Imaging and biodistribution experiments were performed using NODSCID 1L2RyKO male mice. Mice were anesthetized by inhalation with 2% isoflurane in oxygen, and implanted subcutaneously with 1×10^7 LNCaP cells behind left shoulder. […] For biodistribution studies, the mice were injected with the radiotracer as described above. […] The collected organs/tissues were weighed and counted using an automatic gamma counter. […]
Write the answer as a number in % ID/g, unit excluded.

| MOLECULE | STUDY TARGET | Brain uptake [% ID/g] |
| --- | --- | --- |
| O=C([O-])CN1CCN(CC(=O)[O-])CCN(CC(=O)NCCCC[C@H](NC(=O)CNC(=O)CCCc2ccccc2)C(=O)NC[C@H]2CC[C@H](C(=O)N[C@@H](Cc3ccc4ccccc4c3)C(=O)NCCCC[C@H](NC(=O)N[C@@H](CCC(=O)O)C(=O)O)C(=O)O)CC2)CCN(CC(=O)[O-])CC1.[68Ga+3] [^68Ga-HTK03056] | mice bearing PSMA-expressing LNCAP cancer xenografts | 0.12 |

Q. Provide value of Brain uptake for this record tested with mice bearing PSMA-expressing LNCAP cancer xenografts: O=C([O-])CN1CCN(CC(=O)[O-])CCN(CC(=O)NCCCC[C@H](NC(=O)CNC(=O)CCCc2ccc(I)cc2)C(=O)NC[C@H]2CC[C@H](C(=O)N[C@@H](Cc3ccc4ccccc4c3)C(=O)NCCCC[C@H](NC(=O)N[C@@H](CCC(=O)O)C(=O)O)C(=O)O)CC2)CCN(CC(=O)[O-])CC1.[68Ga+3] [^68Ga-HTK03024]
A. 0.34

Q. Record O=C([O-])CN1CCN(CC(=O)[O-])CCN(CC(=O)NCCCC[C@H](NC(=O)CNC(=O)CCCc2ccc(Br)cc2)C(=O)NC[C@H]2CC[C@H](C(=O)N[C@@H](Cc3ccc4ccccc4c3)C(=O)NCCCC[C@H](NC(=O)N[C@@H](CCC(=O)O)C(=O)O)C(=O)O)CC2)CCN(CC(=O)[O-])CC1.[68Ga+3] [^68Ga-HTK03058] : what is its Brain uptake with mice bearing PSMA-expressing LNCAP cancer xenografts?
A. 0.30

Q. mice bearing PSMA-expressing LNCAP cancer xenografts / Brain uptake / Cc1ccc(CCCC(=O)NCC(=O)N[C@@H](CCCCNC(=O)CN2CCN(CC(=O)[O-])CCN(CC(=O)[O-])CCN(CC(=O)[O-])CC2)C(=O)NC[C@H]2CC[C@H](C(=O)N[C@@H](Cc3ccc4ccccc4c3)C(=O)NCCCC[C@H](NC(=O)N[C@@H](CCC(=O)O)C(=O)O)C(=O)O)CC2)cc1.[68Ga+3] [^68Ga-HTK03090] : value?
A. 0.16

Q. Give Brain uptake (mice bearing PSMA-expressing LNCAP cancer xenografts) of the following molecule: O=C([O-])CN1CCN(CC(=O)[O-])CCN(CC(=O)NCCCC[C@H](NC(=O)CNC(=O)CCCc2ccc(Cl)cc2)C(=O)NC[C@H]2CC[C@H](C(=O)N[C@@H](Cc3ccc4ccccc4c3)C(=O)NCCCC[C@H](NC(=O)N[C@@H](CCC(=O)O)C(=O)O)C(=O)O)CC2)CCN(CC(=O)[O-])CC1.[68Ga+3] [^68Ga-HTK03055]
A. 0.28

Q. For the record O=C([O-])CN1CCN(CC(=O)[O-])CCN(CC(=O)NCCCC[C@H](NC(=O)CNC(=O)CCCc2ccc([N+](=O)[O-])cc2)C(=O)NC[C@H]2CC[C@H](C(=O)N[C@@H](Cc3ccc4ccccc4c3)C(=O)NCCCC[C@H](NC(=O)N[C@@H](CCC(=O)O)C(=O)O)C(=O)O)CC2)CCN(CC(=O)[O-])CC1.[68Ga+3] [^68Ga-HTK03089] , what value of Brain uptake is listed for mice bearing PSMA-expressing LNCAP cancer xenografts?
A. 0.04

Q. // fetch mice bearing PSMA-expressing LNCAP cancer xenografts Brain uptake for O=C([O-])CN1CCN(CC(=O)[O-])CCN(CC(=O)NCC2CCC(C(=O)NC(Cc3c4ccccc4cc4ccccc34)C(=O)NCCCCC(NC(=O)NC(CCC(=O)O)C(=O)O)C(=O)O)CC2)CCN(CC(=O)[O-])CC1.[68Ga+3] (centres unmarked) [^68Ga-HTK03041]
A. 0.06

Q. For the record COc1ccc(CCCC(=O)NCC(=O)N[C@@H](CCCCNC(=O)CN2CCN(CC(=O)[O-])CCN(CC(=O)[O-])CCN(CC(=O)[O-])CC2)C(=O)NC[C@H]2CC[C@H](C(=O)N[C@@H](Cc3ccc4ccccc4c3)C(=O)NCCCC[C@H](NC(=O)N[C@@H](CCC(=O)O)C(=O)O)C(=O)O)CC2)cc1.[68Ga+3] [^68Ga-HTK03086] , what value of Brain uptake is listed for mice bearing PSMA-expressing LNCAP cancer xenografts?
A. 0.09

Q. Query the reported Brain uptake for mice bearing PSMA-expressing LNCAP cancer xenografts; item: O=C([O-])CN1CCN(CC(=O)[O-])CCN(CC(=O)NCCCC[C@H](NC(=O)CNC(=O)CCCc2ccc(F)cc2)C(=O)NC[C@H]2CC[C@H](C(=O)N[C@@H](Cc3ccc4ccccc4c3)C(=O)NCCCC[C@H](NC(=O)N[C@@H](CCC(=O)O)C(=O)O)C(=O)O)CC2)CCN(CC(=O)[O-])CC1.[68Ga+3] [^68Ga-HTK03085]
A. 0.04

Q. Which Brain uptake is reported with mice bearing PSMA-expressing LNCAP cancer xenografts for this entry: O=C([O-])CN1CCN(CC(=O)[O-])CCN(CC(=O)NCCCC[C@H](NC(=O)CNC(=O)CCc2ccccc2)C(=O)NC[C@H]2CC[C@H](C(=O)N[C@@H](Cc3ccc4ccccc4c3)C(=O)NCCCC[C@H](NC(=O)N[C@@H](CCC(=O)O)C(=O)O)C(=O)O)CC2)CCN(CC(=O)[O-])CC1.[68Ga+3] [^68Ga-HTK03082] ?
A. 0.01

Q. Given the entry Nc1ccc(CCCC(=O)NCC(=O)N[C@@H](CCCCNC(=O)CN2CCN(CC(=O)[O-])CCN(CC(=O)[O-])CCN(CC(=O)[O-])CC2)C(=O)NC[C@H]2CC[C@H](C(=O)N[C@@H](Cc3ccc4ccccc4c3)C(=O)NCCCC[C@H](NC(=O)N[C@@H](CCC(=O)O)C(=O)O)C(=O)O)CC2)cc1.[68Ga+3] [^68Ga-HTK03087] , what Brain uptake was observed with mice bearing PSMA-expressing LNCAP cancer xenografts?
A. 0.01
